Biological target: NACHT, LRR and PYD domains-containing protein 3 (Mus musculus)
Sequence (Q8R4B8 whole entry, the tested form may be a part): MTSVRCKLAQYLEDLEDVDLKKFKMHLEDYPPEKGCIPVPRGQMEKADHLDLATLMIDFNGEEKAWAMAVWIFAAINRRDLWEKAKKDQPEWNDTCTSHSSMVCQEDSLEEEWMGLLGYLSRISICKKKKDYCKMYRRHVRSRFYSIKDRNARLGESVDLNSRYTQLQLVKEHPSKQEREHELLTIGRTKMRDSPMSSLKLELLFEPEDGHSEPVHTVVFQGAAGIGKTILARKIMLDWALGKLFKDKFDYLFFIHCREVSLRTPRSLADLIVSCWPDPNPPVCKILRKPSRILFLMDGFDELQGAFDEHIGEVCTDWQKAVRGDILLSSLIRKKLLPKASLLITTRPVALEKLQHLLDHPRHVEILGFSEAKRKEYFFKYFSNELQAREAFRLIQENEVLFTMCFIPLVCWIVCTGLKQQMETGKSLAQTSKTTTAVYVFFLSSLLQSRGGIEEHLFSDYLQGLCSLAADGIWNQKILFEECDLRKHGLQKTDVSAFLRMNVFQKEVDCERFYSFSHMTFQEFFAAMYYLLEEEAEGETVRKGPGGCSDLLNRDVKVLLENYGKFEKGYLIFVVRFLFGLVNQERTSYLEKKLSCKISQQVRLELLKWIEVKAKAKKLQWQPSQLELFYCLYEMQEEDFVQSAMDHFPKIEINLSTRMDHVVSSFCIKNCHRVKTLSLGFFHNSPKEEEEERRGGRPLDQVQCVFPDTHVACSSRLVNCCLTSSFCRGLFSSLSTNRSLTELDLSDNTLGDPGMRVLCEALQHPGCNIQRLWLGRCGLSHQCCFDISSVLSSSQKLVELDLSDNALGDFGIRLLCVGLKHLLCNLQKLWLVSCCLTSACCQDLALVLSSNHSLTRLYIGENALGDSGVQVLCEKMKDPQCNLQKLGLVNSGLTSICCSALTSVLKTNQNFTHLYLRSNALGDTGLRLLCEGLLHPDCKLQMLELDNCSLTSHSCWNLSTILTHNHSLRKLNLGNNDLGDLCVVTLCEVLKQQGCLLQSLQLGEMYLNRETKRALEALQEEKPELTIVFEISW
Test: Inhibition of NLRP3 inflammasome activation in LPS-activated mouse BMDM cells assessed as inhibition of nigericin induced IL-1beta secretion preincubated with LPS for 3 hrs followed by compound addition for 40 mins and further stimulated with nigericin for 40 mins by ELISA method
property.label: IC50 (nM)
State just the number; it will be interpreted in nM.

So what's the measured IC50 for this one? `C=C1C(=O)O[C@@H]2C[C@@]3(C)CC[C@@H](OC(=O)c4cnc(Cl)cc4Cl)C(=C)[C@@H]3C[C@H]12`
739

* * *

Molecular target: Cytochrome P450 2E1 (Homo sapiens)
Sequence (P05181 whole entry): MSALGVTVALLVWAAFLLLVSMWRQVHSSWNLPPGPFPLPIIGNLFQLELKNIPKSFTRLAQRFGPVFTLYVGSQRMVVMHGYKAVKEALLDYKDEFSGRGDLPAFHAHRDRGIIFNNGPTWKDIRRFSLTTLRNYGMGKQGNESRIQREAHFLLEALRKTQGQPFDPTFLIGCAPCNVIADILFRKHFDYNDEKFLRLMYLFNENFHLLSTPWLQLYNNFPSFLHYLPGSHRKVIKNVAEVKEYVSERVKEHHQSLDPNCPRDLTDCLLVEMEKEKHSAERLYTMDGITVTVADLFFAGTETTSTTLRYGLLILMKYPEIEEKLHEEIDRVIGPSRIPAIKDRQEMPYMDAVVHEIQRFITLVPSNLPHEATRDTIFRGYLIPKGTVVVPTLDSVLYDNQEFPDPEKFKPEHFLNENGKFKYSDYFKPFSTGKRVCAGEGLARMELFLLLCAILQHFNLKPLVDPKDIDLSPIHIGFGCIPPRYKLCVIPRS
property.label: IC50

GET /values?readout=IC50&item= `C=C1C(=O)O[C@@H]2C[C@@]3(C)CC[C@@H](OC(=O)c4cnc(Cl)cc4Cl)C(=C)[C@@H]3C[C@H]12`
> 100 µM

* * *

Test: AUC (0 to t) in male C57BL/6 mouse at 30 mg/kg, ip measured upto 1440 mins by LC-MS/MS analysis
Format: ADME, organism-based
Conditions: in vivo
Listed compounds paired with reported AUC(0-t) at 24 h
Answer in ng·h/mL, number only, no unit symbol.

[[record]]
compound = "C=C1C(=O)O[C@@H]2C[C@@]3(C)CC[C@@H](OC(=O)c4cnc(Cl)cc4Cl)C(=C)[C@@H]3C[C@H]12"
measured_number = 16.8


Look up AUC(0-t) at 24 h: C=C1C(=O)O[C@@H]2C[C@@]3(C)CCCC(=C)[C@@H]3C[C@H]12 [ISOALANTOLACTONE]
230
